Measured Average (percentage cell inhibition), Dmastoparan MDA-MB231 12.5uM on MDA-MB-231 cells follows.
Your answer should be a plain number; it is taken to be in %.

Some compounds with known Average (percentage cell inhibition), Dmastoparan MDA-MB231 12.5uM results, for comparison:
CC[C@H](C)[C@H](N)C(=O)N[C@@H](CC(N)=O)C(=O)N[C@H](C(=O)N[C@@H](CCCCN)C(=O)N[C@@H](C)C(=O)N[C@@H](CC(C)C)C(=O)N[C@@H](C)C(=O)N[C@@H](C)C(=O)N[C@@H](CC(C)C)C(=O)N[C@@H](C)C(=O)N[C@@H](CCCCN)C(=O)N[C@@H](CCCCN)C(=O)N[C@H](C(=O)N[C@@H](CC(C)C)C(N)=O)[C@@H](C)CC)[C@@H](C)O: 21.7833
CC[C@H](C)[C@H](N)C(=O)N[C@H](C(=O)N[C@@H](CC(C)C)C(=O)N[C@@H](CCCCN)C(=O)N[C@@H](C)C(=O)N[C@@H](CC(C)C)C(=O)N[C@@H](C)C(=O)N[C@@H](C)C(=O)N[C@@H](CC(C)C)C(=O)N[C@@H](C)C(=O)N[C@@H](CCCCN)C(=O)N[C@@H](CCCCN)C(=O)N[C@H](C(=O)N[C@@H](CC(C)C)C(N)=O)[C@@H](C)CC)[C@@H](C)O: 59.8803
CC[C@H](C)[C@H](N)C(=O)N[C@@H](CC(N)=O)C(=O)N[C@@H](CC(C)C)C(=O)N[C@@H](CCCCN)C(=O)N[C@@H](C)C(=O)N[C@@H](CC(C)C)C(=O)N[C@@H](C)C(=O)N[C@@H](C)C(=O)N[C@@H](CC(C)C)C(=O)N[C@@H](C)C(=O)N[C@@H](CCCCN)C(=O)N1CCC[C@H]1C(=O)N[C@H](C(=O)N[C@@H](CC(C)C)C(N)=O)[C@@H](C)CC: -19.0406

QUERY: Output reported Average (percentage cell inhibition), Dmastoparan MDA-MB231 12.5uM of the compound "CC[C@H](C)[C@H](N)C(=O)N[C@@H](CC(N)=O)C(=O)N[C@@H](CC(C)C)C(=O)N[C@@H](CCCCN)C(=O)N[C@@H](C)C(=O)N[C@@H](CC(C)C)C(=O)N[C@@H](C)C(=O)N[C@@H](C)C(=O)N[C@@H](CC(C)C)C(=O)N[C@@H](CCC(N)=O)C(=O)N[C@@H](CCCCN)C(=O)N[C@@H](CCCCN)C(=O)N[C@H](C(=O)N[C@@H](CC(C)C)C(N)=O)[C@@H](C)CC" on MDA-MB-231 cells.
RESULT: 6.186

QUERY: Output reported Average (percentage cell inhibition), Dmastoparan MDA-MB231 12.5uM of the compound "CC[C@H](C)[C@H](NC(=O)[C@H](CCCCN)NC(=O)[C@H](CCCCN)NC(=O)[C@H](C)NC(=O)[C@H](CC(C)C)NC(=O)[C@H](C)NC(=O)[C@H](C)NC(=O)[C@H](CC(C)C)NC(=O)[C@H](C)NC(=O)[C@H](CCCCN)NC(=O)[C@H](CC(C)C)NC(=O)[C@H](CC(N)=O)NC(=O)[C@@H](N)Cc1c[nH]cn1)C(=O)N[C@@H](CC(C)C)C(N)=O" on MDA-MB-231 cells.
RESULT: 37.0221

QUERY: Output reported Average (percentage cell inhibition), Dmastoparan MDA-MB231 12.5uM of the compound "CC[C@H](C)[C@H](N)C(=O)N[C@@H](CC(N)=O)C(=O)N[C@@H](CC(C)C)C(=O)N[C@@H](CCCCN)C(=O)N[C@@H](C)C(=O)N[C@@H](CC(C)C)C(=O)N[C@@H](C)C(=O)N[C@@H](CC(C)C)C(=O)N[C@@H](CC(C)C)C(=O)N[C@@H](C)C(=O)N[C@@H](CCCCN)C(=O)N[C@@H](CCCCN)C(=O)N[C@H](C(=O)N[C@@H](CC(C)C)C(N)=O)[C@@H](C)CC" on MDA-MB-231 cells.
RESULT: 38.4504
